METHOD_DESCRIPTION: Antipoliferative activity against human PC3 cells after 48 hrs by MTT assay
Format: functional, cell-based
CONDITION: PC-3, 48 h
pIC50: −log10 of the molar value.
Kindly return 1.0 if reported pIC50 is no lower than 6; return 0.0 if it is lower.

- CCn1c(C(=O)N[C@@H](C)CO)ccc1C(CC)(CC)c1ccc(OCC(O)C(C)(C)C)c(C)c1 (some centres not stated): 0.0
- CCn1c(C(=O)NCCCN2CCOCC2)ccc1C(CC)(CC)c1ccc(OCC(=O)C(C)(C)C)c(C)c1: 1.0
- CCOC(=O)CN(C)C(=O)c1ccc(C(CC)(CC)c2ccc(OCC(O)C(C)(C)C)c(C)c2)n1CC (configuration not stated): 0.0
- CCn1c(C(=O)OCc2ccc(F)cc2)ccc1C(CC)(CC)c1ccc(OCC(O)C(C)(C)C)c(C)c1 (configuration not stated): 0.0
- CCn1c(C(=O)NCCN(C)C)ccc1C(CC)(CC)c1ccc(OCC(O)C(C)(C)C)c(C)c1 (configuration not stated): 0.0
- CC[C@@H](C)[C@H](NC(=O)c1ccc(C(CC)(CC)c2ccc(OCC(=O)C(C)(C)C)c(C)c2)n1CC)C(=O)O: 0.0
- CCn1c(C(=O)NCCCN(C)C)ccc1C(CC)(CC)c1ccc(OCC(O)C(C)(C)C)c(C)c1 (configuration not stated): 0.0
- CCn1c(C(=O)N(C)CC(=O)O)ccc1C(CC)(CC)c1ccc(OCC(O)C(C)(C)C)c(C)c1 (configuration not stated): 0.0
- CCn1c(C(=O)NCCN)ccc1C(CC)(CC)c1ccc(OCC(=O)C(C)(C)C)c(C)c1: 1.0
- C#CCNC(=O)c1ccc(C(CC)(CC)c2ccc(OCC(O)C(C)(C)C)c(C)c2)n1CC (configuration not stated): 0.0
- CCN(CC)CCNC(=O)c1ccc(C(CC)(CC)c2ccc(OCC(=O)C(C)(C)C)c(C)c2)n1CC: 1.0
- CCn1c(C(=O)N(C)CCC#N)ccc1C(CC)(CC)c1ccc(OCC(O)C(C)(C)C)c(C)c1 (configuration not stated): 0.0
- CCn1c(C(=O)Oc2ccc(CCO)cc2)ccc1C(CC)(CC)c1ccc(OCC(O)C(C)(C)C)c(C)c1 (configuration not stated): 0.0
- C#CC(C)OC(=O)c1ccc(C(CC)(CC)c2ccc(OCC(O)C(C)(C)C)c(C)c2)n1CC (configuration not stated): 0.0
- CC[C@@H](C)[C@H](NC(=O)c1ccc(C(CC)(CC)c2ccc(OCC(O)C(C)(C)C)c(C)c2)n1CC)C(=O)O (some centres not stated): 0.0
- CCN(CC)CCNC(=O)c1ccc(C(CC)(CC)c2ccc(OCC(O)C(C)(C)C)c(C)c2)n1CC (configuration not stated): 1.0
- CCn1c(C(=O)NCC(OC)OC)ccc1C(CC)(CC)c1ccc(OCC(O)C(C)(C)C)c(C)c1 (configuration not stated): 0.0

* * *

METHOD_DESCRIPTION: Antipoliferative activity against human PC3 cells after 48 hrs by MTT assay
Format: functional, cell-based
CONDITION: PC-3, 48 h
Listing of recorded IC50 by entry.
MEASURE: IC50

- CCN(CC)CCCNC(=O)c1ccc(C(CC)(CC)c2ccc(OCC(O)C(C)(C)C)c(C)c2)n1CC (stereo not given): 2.5 µM
- CCn1c(C(=O)N(CCC#N)CCC#N)ccc1C(CC)(CC)c1ccc(OCC(O)C(C)(C)C)c(C)c1 (stereo not given): 7.8 µM
- CCn1c(C(=O)N(C)CC(=O)O)ccc1C(CC)(CC)c1ccc(OCC(=O)C(C)(C)C)c(C)c1: 18.4 µM
- CCN(CC)CCCNC(=O)c1ccc(C(CC)(CC)c2ccc(OCC(=O)C(C)(C)C)c(C)c2)n1CC: 1.8 µM
- C=CCN(C)C(=O)c1ccc(C(CC)(CC)c2ccc(OCC(O)C(C)(C)C)c(C)c2)n1CC (stereo not given): 25.9 µM

* * *

TEST_TARGET: Vitamin D3 receptor (Homo sapiens)
Sequence (P11473 whole entry): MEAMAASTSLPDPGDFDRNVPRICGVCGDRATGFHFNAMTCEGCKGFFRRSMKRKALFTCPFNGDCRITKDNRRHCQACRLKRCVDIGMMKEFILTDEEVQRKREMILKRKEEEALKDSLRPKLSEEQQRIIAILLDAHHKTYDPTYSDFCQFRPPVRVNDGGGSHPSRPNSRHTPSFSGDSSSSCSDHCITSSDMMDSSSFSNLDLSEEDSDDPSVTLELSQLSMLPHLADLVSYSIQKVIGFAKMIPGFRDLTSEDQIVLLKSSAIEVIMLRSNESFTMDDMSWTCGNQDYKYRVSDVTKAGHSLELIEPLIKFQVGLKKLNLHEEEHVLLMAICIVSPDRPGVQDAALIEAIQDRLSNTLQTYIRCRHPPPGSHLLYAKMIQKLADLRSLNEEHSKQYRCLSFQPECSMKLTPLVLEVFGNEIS
pIC50: −log10 of the molar value.
pIC50 for assorted molecules
MEASURE: pIC50

• CCn1c(C(=O)NCCCN2CCOCC2)ccc1C(CC)(CC)c1ccc(OCC(=O)C(C)(C)C)c(C)c1 = 5.45
• CCN(CC)CCCNC(=O)c1ccc(C(CC)(CC)c2ccc(OCC(=O)C(C)(C)C)c(C)c2)n1CC = 6.06
• CCn1c(C(=O)NCC(OC)OC)ccc1C(CC)(CC)c1ccc(OCC(O)C(C)(C)C)c(C)c1 (configuration not stated) = 5.28
• CCn1c(C(=O)NCCN)ccc1C(CC)(CC)c1ccc(OCC(O)C(C)(C)C)c(C)c1 (configuration not stated) = 6.71
• CCOc1ccc(NC(=O)c2ccc(C(CC)(CC)c3ccc(OCC(O)C(C)(C)C)c(C)c3)n2CC)cc1 (configuration not stated) = 5.03
• CC[C@@H](C)[C@H](NC(=O)c1ccc(C(CC)(CC)c2ccc(OCC(=O)C(C)(C)C)c(C)c2)n1CC)C(=O)O = 6.25
